Molecular target: IP3R1 (HEK-IP3R1 cells) (Rattus norvegicus, UniProt P29994)
Sequence (P29994 whole entry): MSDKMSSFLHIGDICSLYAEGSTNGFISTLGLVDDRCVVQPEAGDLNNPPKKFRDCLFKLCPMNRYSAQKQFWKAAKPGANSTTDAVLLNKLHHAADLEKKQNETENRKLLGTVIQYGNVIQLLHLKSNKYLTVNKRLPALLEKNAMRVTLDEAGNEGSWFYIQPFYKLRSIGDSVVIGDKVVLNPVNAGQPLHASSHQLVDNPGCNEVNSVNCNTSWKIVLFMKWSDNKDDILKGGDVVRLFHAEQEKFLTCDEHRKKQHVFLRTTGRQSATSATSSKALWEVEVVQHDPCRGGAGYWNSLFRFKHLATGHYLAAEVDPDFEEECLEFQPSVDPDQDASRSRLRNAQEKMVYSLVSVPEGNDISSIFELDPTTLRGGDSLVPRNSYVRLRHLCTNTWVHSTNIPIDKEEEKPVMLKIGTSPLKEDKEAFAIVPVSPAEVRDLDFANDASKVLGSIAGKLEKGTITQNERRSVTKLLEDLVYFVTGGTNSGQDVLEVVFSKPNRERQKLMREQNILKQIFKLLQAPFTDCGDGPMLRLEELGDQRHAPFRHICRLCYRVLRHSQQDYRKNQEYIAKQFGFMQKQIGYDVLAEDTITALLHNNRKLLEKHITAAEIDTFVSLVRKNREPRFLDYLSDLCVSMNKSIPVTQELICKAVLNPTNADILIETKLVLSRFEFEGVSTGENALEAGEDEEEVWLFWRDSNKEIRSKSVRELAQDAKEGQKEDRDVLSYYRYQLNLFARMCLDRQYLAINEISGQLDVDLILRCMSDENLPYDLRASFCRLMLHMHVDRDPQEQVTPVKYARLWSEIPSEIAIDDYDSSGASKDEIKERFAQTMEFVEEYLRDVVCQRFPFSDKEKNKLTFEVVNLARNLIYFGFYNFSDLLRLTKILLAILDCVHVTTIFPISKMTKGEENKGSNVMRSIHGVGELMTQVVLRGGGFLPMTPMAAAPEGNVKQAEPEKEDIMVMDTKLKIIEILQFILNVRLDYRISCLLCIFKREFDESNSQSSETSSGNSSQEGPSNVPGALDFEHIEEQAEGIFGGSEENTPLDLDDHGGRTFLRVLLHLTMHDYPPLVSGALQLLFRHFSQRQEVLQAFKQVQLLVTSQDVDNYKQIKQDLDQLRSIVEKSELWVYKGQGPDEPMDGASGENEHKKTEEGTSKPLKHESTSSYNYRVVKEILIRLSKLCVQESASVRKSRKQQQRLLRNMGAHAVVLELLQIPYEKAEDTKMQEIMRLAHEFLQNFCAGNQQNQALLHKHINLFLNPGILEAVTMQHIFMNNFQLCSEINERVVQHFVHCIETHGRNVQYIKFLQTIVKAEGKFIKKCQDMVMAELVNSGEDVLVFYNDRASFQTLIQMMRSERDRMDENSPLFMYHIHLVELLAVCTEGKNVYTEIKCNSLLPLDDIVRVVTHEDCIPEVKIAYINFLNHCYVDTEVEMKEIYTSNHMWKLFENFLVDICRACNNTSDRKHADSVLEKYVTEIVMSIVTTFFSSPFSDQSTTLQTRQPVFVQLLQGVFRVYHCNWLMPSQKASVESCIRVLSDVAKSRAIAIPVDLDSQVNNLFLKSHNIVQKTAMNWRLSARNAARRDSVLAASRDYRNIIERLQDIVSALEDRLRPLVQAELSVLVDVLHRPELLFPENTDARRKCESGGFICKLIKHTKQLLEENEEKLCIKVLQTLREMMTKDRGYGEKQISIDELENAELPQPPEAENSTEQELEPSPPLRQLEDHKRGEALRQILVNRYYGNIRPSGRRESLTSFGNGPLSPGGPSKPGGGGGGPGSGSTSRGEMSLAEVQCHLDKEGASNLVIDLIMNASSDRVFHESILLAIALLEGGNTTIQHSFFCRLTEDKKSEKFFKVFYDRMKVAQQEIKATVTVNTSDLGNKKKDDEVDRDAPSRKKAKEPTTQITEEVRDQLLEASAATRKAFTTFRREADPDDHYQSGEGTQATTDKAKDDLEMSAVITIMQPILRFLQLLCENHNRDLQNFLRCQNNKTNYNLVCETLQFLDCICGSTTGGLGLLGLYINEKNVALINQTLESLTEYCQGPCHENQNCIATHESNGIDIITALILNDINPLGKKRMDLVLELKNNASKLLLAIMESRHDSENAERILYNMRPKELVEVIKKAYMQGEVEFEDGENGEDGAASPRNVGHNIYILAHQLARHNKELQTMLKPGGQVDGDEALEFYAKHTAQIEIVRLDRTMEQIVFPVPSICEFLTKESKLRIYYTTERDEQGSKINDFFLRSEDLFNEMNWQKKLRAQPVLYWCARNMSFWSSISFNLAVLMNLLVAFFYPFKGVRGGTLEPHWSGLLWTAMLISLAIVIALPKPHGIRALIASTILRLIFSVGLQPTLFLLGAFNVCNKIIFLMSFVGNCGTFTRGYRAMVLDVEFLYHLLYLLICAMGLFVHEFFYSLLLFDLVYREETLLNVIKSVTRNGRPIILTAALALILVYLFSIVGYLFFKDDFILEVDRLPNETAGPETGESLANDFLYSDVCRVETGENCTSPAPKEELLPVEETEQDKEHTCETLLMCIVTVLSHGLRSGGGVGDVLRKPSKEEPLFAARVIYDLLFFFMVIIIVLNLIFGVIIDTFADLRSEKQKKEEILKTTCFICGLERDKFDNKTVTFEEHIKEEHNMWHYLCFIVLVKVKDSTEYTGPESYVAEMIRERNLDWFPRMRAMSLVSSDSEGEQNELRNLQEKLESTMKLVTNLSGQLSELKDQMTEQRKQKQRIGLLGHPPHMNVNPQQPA
Assay: Ca2+ release from stores of permeabilized cells, Mag-fluo […]
Metric Name: EC50 (nM)
Give bare numbers, in nM.

Prompt: Specify measured EC50 for "Nc1ncnc2c1ncn2[C@@H]1O[C@H](CO)[C@@H](O[C@H]2[C@H](O)[C@H](O)[C@@H](OP(=O)(O)O)[C@H](OP(=O)(O)O)[C@H]2O)[C@H]1OP(=O)(O)O" .
Response: 22

Reference source for all entries: paper PMC7659177
